Below, each entry is listed with its recorded pIC50.
- Tested on: A549
- experimental_protocol: Antiproliferative activity against human A549 cells assessed as reduction in cell viability measured after 48 hrs MTT assay
- Type: functional, cell-based
- condition_info: A549, 48 h
// pIC50: -log10(molar conc.)

query: Param item = Cc1nsc2c1C(=O)c1ccccc1C2=O ; retrieve measured pIC50.
result: 5.77

query: Param item = COc1ccc(-c2nsc3c2C(=O)c2cccnc2C3=O)cc1 ; retrieve measured pIC50.
result: 5.56

----------
- Tested on: A549
- experimental_protocol: Antiproliferative activity against human A549 cells assessed as reduction in cell viability measured after 48 hrs MTT assay
- Type: functional, cell-based
- condition_info: A549, 48 h
readout_type: IC50 (µM)
State just the number; it will be interpreted in µM.

The cases that follow already have their IC50 on record.
[[record]]
chemical_structure = "CCc1nsc2c1C(=O)c1cccnc1C2=O"
units_of_measure = "µM"
measured_result = 1.51

[[record]]
chemical_structure = "CCc1nsc2c1C(=O)c1ccccc1C2=O"
units_of_measure = "µM"
measured_result = 0.7


query: Param item = Cc1nsc2c1C(=O)c1cccc(O)c1C2=O ; retrieve measured IC50.
result: 1.36

query: Param item = Cc1nsc2c1C(=O)c1cccnc1C2=O ; retrieve measured IC50.
result: 1.69

----------
- Tested on: A549
- experimental_protocol: Antiproliferative activity against human A549 cells assessed as reduction in cell viability measured after 48 hrs MTT assay
- Format: functional, cell-based
- condition_info: A549, 48 h
readout_type: IC50 (µM)
State just the number; it will be interpreted in µM.

The cases that follow already have their IC50 on record.
[[record]]
chemical_structure = "COc1ccc(-c2nsc3c2C(=O)c2cccc(O)c2C3=O)cc1"
system = "A549"
units_of_measure = "µM"
measured_result = 4.8

[[record]]
chemical_structure = "Cc1nsc2c1C(=O)c1ncccc1C2=O"
system = "A549"
units_of_measure = "µM"
measured_result = 3.28

[[record]]
chemical_structure = "CC(=O)c1cc2c(o1)C(=O)c1ccccc1C2=O"
system = "A549"
units_of_measure = "µM"
measured_result = 6.69

[[record]]
chemical_structure = "CCc1nsc2c1C(=O)c1ncccc1C2=O"
system = "A549"
units_of_measure = "µM"
measured_result = 1.38


Then there is this molecule:
query: Param item = CCc1nsc2c1C(=O)c1c(O)cccc1C2=O ; retrieve measured IC50.
result: 1.38

----------
Below, each entry is listed with its recorded log10 Activity.
- system: NAD(P)H dehydrogenase [quinone] 1 (Homo sapiens)
- experimental_protocol: Substrate activity at human NQO1 assessed as amount of NADH oxidation assessed per umol NQO1
// units: µmol/min (pre-log); metric: Activity; scale: log10

[[record]]
chemical_structure = "O=C1c2ccccc2C(=O)c2c(-c3ccccc3)nsc21"
measured_result = 0.75

[[record]]
chemical_structure = "COc1ccc(-c2nsc3c2C(=O)c2ccccc2C3=O)cc1"
measured_result = 0.86

[[record]]
chemical_structure = "COc1ccc(-c2nsc3c2C(=O)c2cccnc2C3=O)cc1"
measured_result = 2.32

[[record]]
chemical_structure = "Cc1nsc2c1C(=O)c1cccc(O)c1C2=O"
measured_result = 2.09

[[record]]
chemical_structure = "CCc1nsc2c1C(=O)c1c(O)cccc1C2=O"
measured_result = 1.99


query: Param item = CCc1nsc2c1C(=O)c1ncccc1C2=O ; retrieve measured log10 Activity.
result: 1.96
